B1: TRIM35 (parent)
chain: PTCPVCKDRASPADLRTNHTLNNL

# Variants of: B1
# test.name: protein stability index of a GFP-peptide fusion (GPS, HEK-293T) (PSI 1-6); higher = more stable;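 further: lentivirally expressed fusions sorted by FACS into six bins by GFP to DsRed ratio, PSI derived from sequencing read proportions per bin multiplied by bin number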
# test.context: c terminus: a fixed tail appended
Assign class by protein stability index: not lower than 3 means criterion met; lower than 3 means criterion not met.

{"residue.change": "H19I", "assigned.label": "criterion not met"}
{"residue.change": "P12H", "assigned.label": "criterion not met"}
{"residue.change": "C6T", "assigned.label": "criterion met"}
{"residue.change": "N18E", "assigned.label": "criterion met"}
{"residue.change": "L15Q", "assigned.label": "criterion met"}
{"residue.change": "D14L", "assigned.label": "criterion not met"}
{"residue.change": "T17L", "assigned.label": "criterion not met"}
{"residue.change": "K7V", "assigned.label": "criterion met"}
{"residue.change": "A10W", "assigned.label": "criterion not met"}
{"residue.change": "K7I", "assigned.label": "criterion met"}
{"residue.change": "N18T", "assigned.label": "criterion not met"}
{"residue.change": "A13M", "assigned.label": "criterion not met"}
{"residue.change": "K7Y", "assigned.label": "criterion not met"}
{"residue.change": "R9V", "assigned.label": "criterion not met"}
{"residue.change": "P1I", "assigned.label": "criterion not met"}
{"residue.change": "L15F", "assigned.label": "criterion not met"}
{"residue.change": "K7H", "assigned.label": "criterion met"}
{"residue.change": "D8V", "assigned.label": "criterion not met"}
{"residue.change": "R16E", "assigned.label": "criterion met"}
{"residue.change": "L24T", "assigned.label": "criterion met"}
{"residue.change": "L24H", "assigned.label": "criterion met"}
{"residue.change": "H19E", "assigned.label": "criterion met"}
{"residue.change": "N18C", "assigned.label": "criterion met"}
{"residue.change": "L21M", "assigned.label": "criterion met"}
{"residue.change": "D14G", "assigned.label": "criterion not met"}
